Sourced from PubChem BioAssay (NCI)

# Test system: M14 melanoma
# TEST_DESCRIPTION: NCI-60 one-dose screen, 48 h
# ASSAY_CONDITIONS: 10 µM unless noted
The panel holds about 83,000 compounds, 20% with a hit somewhere; the sample as a whole holds those more often. Active and inactive are the calls of the source. Rule for the calls: active = growth percent below 10; inactive = the rest.
API: response.call in TRUE = active, FALSE = inactive

Look over these answered cases.
CS(=O)(=O)c1ccc(/C(=N/NC(N)=S)c2ccc(F)cc2)cc1	FALSE
Cc1ccc2nc(/C=C/c3ccc(N(C)C)cc3)cc(C)c2c1	FALSE
CN1CCN(c2ccc(Nc3ncc4[nH]c(=O)n(Cc5ccccc5N)c4n3)cc2)CC1	FALSE
C#Cc1cccc(Nc2ncnc3ccc(-c4cnc(Cl)c(NS(C)(=O)=O)c4)cc23)c1	TRUE

Hey, what did the test say about `Cc1cc(N2CCOCC2)nc(N(CCCNc2ccnc3cc(Cl)ccc23)Cc2ccc3c(c2)OCO3)n1` ? TRUE

Hey, what did the test say about `COc1ccc(S(=O)(=O)N(C)c2oc(-c3ccc(Cl)cc3)nc2C#N)cc1` ? FALSE

Hey, what did the test say about `COc1ccc(C2=C/C(=C\c3ccccc3O)C(=O)N2Cc2ccccc2)cc1` ? FALSE

* * *

# System: RPMI-8226 leukemia
# TEST_DESCRIPTION: NCI-60 one-dose screen, 48 h
# ASSAY_CONDITIONS: 10 µM unless noted
About 83,000 compounds went through this panel and 20% of them were active in at least one assay; those are over-represented in the sample as a whole. The source made the active and inactive calls. How the source made its calls: active means growth percent below 10; inactive means the rest.
API: response.call in true (1) = active, false (0) = inactive

Look over these answered cases.
CS(=O)(=O)c1ccc(/C(=N/NC(N)=S)c2ccc(F)cc2)cc1	false (0)
CN(C)CC1C(=O)O[C@H]2[C@H]1CC/C(COC(=O)NCc1ccc(Cn3c(=O)sn(CCCI)c3=O)cc1)=C\CC[C@@]1(C)O[C@@H]21 (some centres not stated)	true (1)
COc1cc(C2=Nc3c(N)nc(N)nc3NC(c3cccc(Nc4ccnc5cc(C(F)(F)F)ccc45)c3)C2)cc(OC)c1OC (configuration not stated)	false (0)
COC(=O)c1c(C)nc(C)c2c1C(=O)C(Br)=C(NCCCCO)C2=O	false (0)
O=S(=O)(c1ccc(NCSc2nc3ccccc3s2)cc1)c1ccc(NCSc2nc3ccccc3s2)cc1	false (0)

Consider now this further compound.
Hey, what did the test say about COc1cc2c(cc1-c1c(C)noc1C)ncc1nc(C3CCOCC3)n(C3CCC(OC(F)F)CC3)c12 (configuration not stated) ? false (0)

* * *

Entries and their measured growth follow.
# Test system: HT29 colon
# TEST_DESCRIPTION: NCI-60 one-dose screen, 48 h (100 = growth as untreated, 0 = no growth, -100 = all killed)
# ASSAY_CONDITIONS: 10 µM unless noted
The panel holds about 83,000 compounds, 20% with a hit somewhere; the sample as a whole holds those more often.
Hi! Could you send only the number? It should be in %, unit omitted.

Look over these answered cases.
O=C(/C=C/c1ccco1)c1ccc(Nc2ccnc3cc(Cl)ccc23)cc1	23.4
COc1cc(OCc2cccc(-c3ccc4c(c3)OCCO4)c2C)cc(OC)c1C=O	67.6
COc1cccc2cc(N(C)c3ncnc4ccccc34)ccc12	2.77
CCCN1C(=O)N(CCC)C2C1NC(=S)N2/N=C/C=C/c1ccccc1OC (centres undefined)	2.43
[2H]C([2H])([2H])Oc1c(F)cccc1/C=C/C(=O)/C=C(O)/C=C/c1cccc(F)c1OC([2H])([2H])[2H]	103

Look up growth: `COc1ccc(-c2cc(-c3ccc(Nc4nc(Nc5ccc(Cl)cc5)nc(Nc5ccc(Cl)cc5)n4)cc3)no2)cc1` 78.9

Look up growth: `C=CCn1c(SCC(=O)Nc2ccc(C(=O)/C=C/c3cc(OC)c(OC)c(OC)c3)cc2)nnc1-c1cc(-c2ccc(S(N)(=O)=O)cc2)nc2ccccc12` 98.1

Look up growth: `O=C(c1ccc(F)cc1)C1CCN(CCn2c(=O)[nH]c3ccccc3c2=O)CC1` 98.4

Look up growth: `CCCCCCCCNc1ncnc2c1ncn2Cc1nnc2c3ccccc3c(Cl)nn12` 44.1

* * *

# System: SNB-75 CNS
# TEST_DESCRIPTION: NCI-60 one-dose screen, 48 h (100 = growth as untreated, 0 = no growth, -100 = all killed)
# ASSAY_CONDITIONS: 10 µM unless noted
This is part of a sample that, as a whole, favours compounds with a hit. Of some 83,000 tested, about 20% had one in any assay.
# if measured growth < 40%: rule met  # else: rule not met

Look over these answered cases.
O=C(Nc1ccccc1C(F)(F)F)C1=NCCCCN1	rule not met
CCCCCCCCNc1ncnc2c1ncn2Cc1nnc2c3ccccc3c(Cl)nn12	rule met
O=C1CCC(C(=O)N/N=C/c2ccc([N+](=O)[O-])cc2)N1 (stereo not given)	rule not met
COc1cc(NC(=O)c2cncnc2Nc2ccc3c(ccn3Cc3cccc(F)c3)c2)cc(OC)c1	rule met
COc1ccc(NC(=O)c2ccc(Cl)cc2Cl)cc1	rule not met

Consider now this further molecule.
Bench note: check whether `C#Cc1cccc(Nc2nc(Cl)nc3cc(NC(=O)CCl)ccc23)c1` shows growth below 40% rule met

* * *

Entries and their measured growth follow.
# System: SNB-19 CNS
# TEST_DESCRIPTION: NCI-60 one-dose screen, 48 h (100 = growth as untreated, 0 = no growth, -100 = all killed)
# ASSAY_CONDITIONS: 10 µM unless noted
Compounds without any hit were thinned out: in the full panel of roughly 83,000, 20% have a hit.
Hi! Could you send only the number? It should be in %, unit omitted.

COc1ccc(-c2cc(-c3ccc(Cl)cc3)c(C#N)c(=O)n2CCCCC(=O)NO)cc1	78
O=C(Nc1ncc(Cc2cc(C(F)(F)F)ccc2Cl)s1)C(=S)N1CCOCC1	96.9
Cc1cc(N2CCOCC2)nc(N(CCCNc2ccnc3cc(Cl)ccc23)Cc2ccc3c(c2)OCO3)n1	40.6
CCc1ccc(Cc2cnc(NC(=O)c3cc(C)oc3C)s2)cc1	37.1
COc1cc(CNC(=O)CCCC/C=C/C(C)C)ccc1OCc1cn(-c2cccc([N+](=O)[O-])c2)nn1	68.2

Look up growth: `CO[C@H]1CC(c2ccc[nH]2)=N[C@]12O[C@@H](C)C[C@@H]1CCCCCCCc3ccc([nH]3)[C@H]12` 55.4

Look up growth: `O=C(/C=C/c1ccc(Cl)cc1)c1ccc(Nc2ccnc3cc(Cl)ccc23)cc1` 99.7

Look up growth: `C1=C2CCCC3=Cc4ccccc4OC23Oc2ccccc21` 27.4

Look up growth: CC1(C)C2=C(C(=O)N1Cc1ccccc1)C(c1ccco1)N(C(=O)C1CCC1)CCN2 (centres undefined) 98.9

Look up growth: COc1cc2c(c(OC)c1OC)CCC(c1cccc(C(=O)Nc3ccccc3Br)c1)O2 (centres undefined) 90.1

Look up growth: C#CC(F)(F)[C@]1(O)CCC2C3CCC4=CC(=O)CCC4=C3[C@@H](c3ccc(N(C)C)cc3)C[C@@]21C (some centres undefined) 98.6

Look up growth: CCOC(=O)C1=CCC(n2cc(F)c(=O)[nH]c2=O)O1 (centres undefined) 108

Look up growth: `C=C(c1ccc(OC)c(/C=C/C(=O)c2cc(OC)c(OC)c(OC)c2)c1)c1cc(OC)c(OC)c(OC)c1` -3.73

Look up growth: COc1cc(C2CC(c3cccc(Nc4ccncc4)c3)=Nc3c(N)ncnc3N2)cc(OC)c1OC (centres undefined) 93.8

Look up growth: `CCCCCCCCNc1ncnc2c1ncn2Cc1nnc2c3ccccc3c(Cl)nn12` 56.2

Look up growth: `CC(=O)/C(Br)=C/c1ccc(Br)o1` 87.8

Look up growth: C=CCOC(=O)C1=C(C)N(CC)C(=O)N(CC)C1c1c(Cl)n(C)c2ccccc12 (centres undefined) 75.6

Look up growth: COc1cc2c(c(OC)c1OC)CCC(c1cccc(C(=O)Nc3ccc([N+](=O)[O-])cc3)c1)O2 (centres undefined) 56.7

Look up growth: `N/C(=N\c1nc2ccccc2s1)NC(=O)Nc1ccccc1` 32.1

Look up growth: `COc1ccc2c(O)cc3c(c2c1)[C@H](CCl)CN3C(=O)c1cc2cc(NC(=O)CCN3CCOCC3)ccc2[se]1` -76.2

Look up growth: `COc1ccc(/C=C/C(=O)c2ccc(-n3cc(CN4CCN(c5cc6c(cc5F)c(=O)c(C(=O)O)cn6C5CC5)CC4)nn3)cc2)cc1` 67.7

Look up growth: Cc1ccc(C2=Nc3c(N)nc(N)nc3NC(c3cccc(Nc4ccnc5cc(C(F)(F)F)ccc45)c3)C2)cc1 (centres undefined) 34.4

Look up growth: `COc1ccc(-c2csc(NC(=O)CSc3nc(C)cc(=O)[nH]3)n2)cc1` 89.3

Look up growth: `CC(C)(C)[C@H](OCc1cn([C@H]2C[C@@H](O)[C@@H](CO)O2)c(=O)[nH]c1=O)c1ccc(C#Cc2ccccc2)cc1[N+](=O)[O-]` 82.4

Look up growth: CN1C(=O)N(C)C2C1NN=c1s/c(=C\c3ccc(F)cc3)c(=O)n12 (centres undefined) 34.8

Look up growth: `CCOC(=O)c1ccc2c(c1)c1c(C)c3cnccc3c(C)c1n2C` -15

Look up growth: `Oc1ccc(C(c2ccc(O)cc2)c2ccc(Cl)cn2)cc1` 71.9
